// provenance: patent US11192863B2

molecular target: Vpu protein (Human immunodeficiency virus type 1 group M subtype B); settings: Table 19b
Sequence (P05919 whole entry): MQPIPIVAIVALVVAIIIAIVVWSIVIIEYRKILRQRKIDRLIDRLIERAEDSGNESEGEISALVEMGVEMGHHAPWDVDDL
Please note: 1.0 applies when Vpu Bacterial score is 3 or greater, and 0.0 applies otherwise.

| Molecule | Discrete label |
| --- | --- |
| N=C(N)NC(=O)C1CC1c1ccccc1 (stereo not drawn) | 0.0 |
| COc1ccc2cc(C(=O)NC(=N)N)ccc2c1 [6-methoxy-2-naphthoylguanidine] | 0.0 |
| NC(N)=NC(=O)c1nc(Cl)c(N2CCCCCC2)nc1N [5-(N,N-hexamethylene)amiloride] | 0.0 |
| NC(N)=NC(=O)/C=C/C=C/c1ccccc1 [(5-Phenyl-penta-2,4-dienoyl)guanidine] | 0.0 |
| N=C(N)NC(=O)/C=C/c1cccc(Br)c1 [(3-Bromocinnamoyl)guanidine] | 1.0 |
| N=C(N)NC(=O)/C=C/c1cccc2ccccc12 [trans-3-(1-napthyl)acryloylguanidine] | 0.0 |
| N=C(N)NC(=O)/C=C/c1cccc(C(F)(F)F)c1 [3-(trifluoromethyl)cinnamoylguanidine] | 1.0 |
| N=C(NC(=O)CCc1ccccc1)Nc1ccccc1 [N-(3-phenylpropanoyl)-N′-phenylguanidine] | 0.0 |
